Listed next: entries and their corresponding logD.
- protocolNotes: Partition coefficient, phosphate buffer/n-octanol
- Assay type: physicochemical
- testConditions: 50 mM phosphate buffer (pH 7.4, μ=0.15)/n-octanol
recordedEndpoint: logD

>>> datavalue("CCOC(=O)c1cn(C2CC2)c2c(F)c(N3COC(CN(C)C)C3)c(F)cc2c1=O (centres unmarked) [Compound 64]")
-0.316
>>> datavalue("Nc1c(F)c(OC2CCNCC2)c(F)c2c1c(=O)c(C(=O)O)cn2C1CC1 [Compound 19]")
-0.693

====

- System: E. coli NIH JC-2 (IFO 12734)
Listed next: entries and their corresponding log10(MIC).
recordedEndpoint: log10(MIC) (log10 of the value in µg/mL)

>>> datavalue("Cl.O=C(O)c1cn(-c2ccc(F)cc2F)c2nc(OC3CCNC3)c(F)cc2c1=O (stereo not drawn)")
-0.11
>>> datavalue("O=C(O)c1cn(C2CC2)c2c(F)c(N3CCCOC3)c(F)cc2c1=O")
-0.41
>>> datavalue("Cl.Nc1c(F)c(OC2CCNC2)c(F)c2c1c(=O)c(C(=O)O)cn2C1CC1 (stereo not drawn)")
-1.00
>>> datavalue("O=C(O)c1cn(C2CC2)c2c(F)c(N3COC(CO)C3)c(F)cc2c1=O (stereo not drawn)")
-1.00
>>> datavalue("CC1CN(c2cc3c(cc2F)c(=O)c(C(=O)O)cn3C2CC2)CO1 (stereo not drawn)")
-0.70
>>> datavalue("CC1COc2c(OC3CCNC3)c(F)cc3c(=O)c(C(=O)O)cn1c23.Cl (stereo not drawn)")
0.10
>>> datavalue("CCn1cc(C(=O)O)c(=O)c2cc(F)c(OC3CCN(C)CC3)cc21")
-0.11
>>> datavalue("CC1COCN1c1c(F)cc2c(=O)c(C(=O)O)cn(C3CC3)c2c1F (stereo not drawn)")
-0.11
>>> datavalue("Cl.O=C(O)c1cn(C2CC2)c2c(F)c(OC3CCNC3)c(F)cc2c1=O (stereo not drawn)")
-0.70
>>> datavalue("Cl.O=C(O)c1cn(C2CC2)c2cc(OC3CCNC3)c(F)cc2c1=O (stereo not drawn)")
-0.41
>>> datavalue("CN(C)CC1CN(c2c(F)cc3c(=O)c(C(=O)O)cn(C4CC4)c3c2F)CO1 (stereo not drawn)")
-0.70
>>> datavalue("O=C(O)c1cn(C2CC2)c2cc(N3CCOC3)c(F)cc2c1=O")
-0.70
>>> datavalue("CC1COc2c(OC3CCN(C)CC3)c(F)cc3c(=O)c(C(=O)O)cn1c23 (stereo not drawn)")
0.19
>>> datavalue("CCn1cc(C(=O)O)c(=O)c2cc(F)c(N3CCOC3)cc21")
-0.11
>>> datavalue("CN(C)CC1CN(c2cc3c(cc2F)c(=O)c(C(=O)O)cn3C2CC2)CO1 (stereo not drawn)")
-0.70
>>> datavalue("O=C(O)c1cn(C2CC2)c2c(F)c(N3CCOC3)c(F)c(F)c2c1=O")
-0.41
>>> datavalue("CC1CN(c2c(F)cc3c(=O)c(C(=O)O)cn(C4CC4)c3c2F)CO1 (stereo not drawn)")
-0.70
>>> datavalue("O=C(O)c1cn(C2CC2)c2c(F)c(N3CCOC3)c(F)cc2c1=O")
-0.70
